Data origin, for the record: patent US20150284331A1

Biological target: acetylcholinesterase (Rattus norvegicus, UniProt P37136)
Construct: Acetylcholinesterase: rat cortex; from tissue; host or cells: rat cortex
Sequence (P37136 32-614): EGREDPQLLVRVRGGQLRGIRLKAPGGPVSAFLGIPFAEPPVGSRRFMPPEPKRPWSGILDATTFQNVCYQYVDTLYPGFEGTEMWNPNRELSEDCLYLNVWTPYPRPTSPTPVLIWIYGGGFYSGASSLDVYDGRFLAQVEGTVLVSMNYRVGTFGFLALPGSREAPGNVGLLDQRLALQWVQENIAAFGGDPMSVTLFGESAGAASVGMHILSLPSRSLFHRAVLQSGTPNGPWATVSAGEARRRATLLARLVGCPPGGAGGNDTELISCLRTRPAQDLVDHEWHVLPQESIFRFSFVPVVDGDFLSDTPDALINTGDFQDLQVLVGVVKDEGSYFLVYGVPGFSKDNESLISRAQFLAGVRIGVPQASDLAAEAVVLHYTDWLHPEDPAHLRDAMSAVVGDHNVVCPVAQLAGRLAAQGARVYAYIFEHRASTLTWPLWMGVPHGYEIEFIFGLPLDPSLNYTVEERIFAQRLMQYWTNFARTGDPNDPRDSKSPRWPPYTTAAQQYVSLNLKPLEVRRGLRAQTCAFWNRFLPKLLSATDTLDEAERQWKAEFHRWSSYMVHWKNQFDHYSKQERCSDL
Assay: biochemical
Assay type: biochemical
Settings: rat cortex enzyme; final concentration 4×10−5 mol/L
reported endpoint: acetylcholinesterase inhibitory activity inhibition ratio (%)
Numbers only, in %.

Before answering, review these 6 worked examples.
[[record]]
compound = "COc1cc2c(cc1OC)C(=O)C(CC1(F)CCN(Cc3ccc(Br)cc3F)CC1)C2 (centres unmarked)"
units_text = "%"
reported_measurement = 72.65

[[record]]
compound = "O=C1c2cc(OCC(F)F)c(OCC(F)F)cc2CC1CC1(F)CCN(Cc2ccccc2F)CC1 (centres unmarked)"
units_text = "%"
reported_measurement = 98.14

[[record]]
compound = "COc1cc2c(cc1OC)C(=O)C(CC1(F)CC3CCC(C1)N3Cc1cccc(C)c1)C2 (centres unmarked)"
units_text = "%"
reported_measurement = 97.49

[[record]]
compound = "COc1cc2c(cc1OC)C(=O)C(CC1(F)CCN(Cc3ccc(F)cc3)CC1)C2 (centres unmarked)"
units_text = "%"
reported_measurement = 82.04

[[record]]
compound = "COc1cc2c(cc1OC)C(=O)C(CC1(F)CCN(Cc3cccc(Br)c3)CC1)C2 (centres unmarked)"
units_text = "%"
reported_measurement = 84.63

[[record]]
compound = "COc1cc2c(cc1OC)C(=O)C(CC1(F)CCN(Cc3cccc(F)c3)CC1)C2.Cl (centres unmarked)"
units_text = "%"
reported_measurement = 96.90


// batch mode: one acetylcholinesterase inhibitory activity inhibition ratio (%) value per listed entry
1. COc1cc2c(cc1OC)C(=O)C(CC1(F)CCN(Cc3c(F)cccc3[N+](=O)[O-])CC1)C2 (centres unmarked)
2. COc1cc2c(cc1OC)C(=O)C(CC1(F)CCN(Cc3cc(C(F)(F)F)cc(C(F)(F)F)c3)CC1)C2 (centres unmarked)

## Output
[76.05, 58.49]
